Biological target: recombinant human MIF (macrophage migration inhibitory factor) (human, UniProt P14174 2-115)
Sequence (P14174 2-115): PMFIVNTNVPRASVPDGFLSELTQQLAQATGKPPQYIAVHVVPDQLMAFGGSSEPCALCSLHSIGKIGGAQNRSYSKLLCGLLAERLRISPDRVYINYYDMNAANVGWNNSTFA
Experiment: Biacore; Fab fragment
EXPERIMENTAL READOUT: Kd
A complete answer gives the number and then names the unit.

BINDER	Kd
anti-MIF antibody Bax94 (antibody, V domains shown) VH: EVQLLESGGGLVQPGGSLRLSCAASGFTFSIYAMDWVRQAPGKGLEWVSGIVPSGGFTKYADSVKGRFTISRDNSKNTLYLQMNSLRAEDTAVYYCARVNVIAVAGTGYYYYGMDVWGQGTTVTVSS VL: DIQMTQSPGTLSLSPGERATLSCRASQGVSSSSLAWYQQKPGQAPRLLIYGTSSRATGIPDRFSGSASGTDFTLTISRLQPEDFAVYYCQQYGRSLTFGGGTKVEIK	4 nM
Bax69 (antibody, V domains shown) VH: EVQLLESGGGLVQPGGSLRLSCAASGFTFSIYSMNWVRQAPGKGLEWVSSIGSSGGTTYYADSVKGRFTISRDNSKNTLYLQMNSLRAEDTAVYYCAGSQWLYGMDVWGQGTTVTVSS VL: DIQMTQSPSSLSASVGDRVTITCRSSQRIMTYLNWYQQKPGKAPKLLIFVASHSQSGVPSRFRGSGSETDFTLTISGLQPEDSATYYCQQSFWTPLTFGGGTKVEIK	55 nM
Bax74 (antibody, V domains shown) VH: EVQLLESGGGLVQPGGSLRLSCAASGFTFSKYYMIWVRQAPGKGLEWVSWIGPSGGFTFYADSVKGRFTISRDNSKNTLYLQMNSLRAEDTAVYYCARGTPDYGGNSLDHWGQGTLVTVSS VL: DIQMTQSPSSLPASVGDRVTITCRASQSIGTYLSWYQHKPGNAPKLLIYATSRLQSGVPSRFSGGGSGTRFTLAISSLQPDDFATYFCQQTYSTPLTFGGGTKVDIK	93 nM

Now take the following binder into account.
Please look up its Kd: Bax152 (antibody, V domains shown) VH: EVQLLESGGGLVQPGGSLRLSCAASGFTFSIYAMDWVRQAPGKGLEWVSGIVPSGGFTKYADSVKGRFTISRDNSKNTLYLQMNSLRAEDTAVYYCARVNVIAVAGTGYYYYGMDVWGQGTTVTVSS VL: DIQMTQSPVTLSLSPGERATLSCRASQSVRSSYLAWYQQKPGQTPRLLIYGASNRATGIPDRFSGSGSGTDFTLTISRLEPEDFAVYYCQQYGNSLTFGGGTKVEIK
16 nM
